Listed here: items and their measured pKd.
biological target: Human GPA33 (recombinant protein, Novoprotein) (human) (UniProt Q99795); assay: SPR (Biacore), binding to GPA33 protein; IgG format
Sequence (Q99795 22-235 limits assumed): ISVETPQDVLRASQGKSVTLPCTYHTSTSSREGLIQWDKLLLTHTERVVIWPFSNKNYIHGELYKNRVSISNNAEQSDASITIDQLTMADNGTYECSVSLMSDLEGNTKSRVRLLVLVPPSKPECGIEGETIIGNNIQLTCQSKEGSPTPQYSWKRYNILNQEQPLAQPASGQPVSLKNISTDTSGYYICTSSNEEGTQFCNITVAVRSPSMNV
pKd: −log10 of the molar value.
property-name: pKd

INSERT INTO measurements (binder, val) VALUES
  ('G3A_VK2+VH3 (antibody, IgG1, V domains shown, part only, IgG1 constant regions not given) VH: EVQLVESGGGLVKPGGSLRLSCAASGFAFSTYDMSWVRQAPGKGLEWVATISSGGSYTYYADSVKGRFTISRDSAKNSLYLQMNSLRAEDTAVYYCAPTTVVPFAYWGQGTLVTVSA VL: DIQMTQSPSSLSTSVGDRVTITCKASQNVRTVVAWYQQKPGKAPKTLIYLASSLQSGVPSRFSGSGSGTEFTLTISNVQPEDFADYFCLQHWSYPLTFGSGTKLEVK', 8.08),
  ('G3A_VK1+VH1 (antibody, IgG1, V domains shown, part only, IgG1 constant regions not given) VH: EVQLVESGGGLVKPGGSLRLSCAASGFAFSTYDMSWVRQAPGKGLEWVSTISSGGSYTYYADSVKGRFTISRDNAKNSLYLQMNSLRAEDTAVYYCAPTTVVPFAYWGQGTLVTVSA VL: DIQMTQSPSSLSASVGDRVTITCKASQNVRTVVAWYQQKPGKAPKRLIYLASNRHTGVPSRFSGSGSGTEFTLTISNLQPEDFATYYCLQHWSYPLTFGSGTKLEVK', 9.06),
  ('G3A_VK2+VH2 (antibody, IgG1, V domains shown, part only, IgG1 constant regions) VH: EVQLVESGGGLVKPGGSLRLSCAASGFAFSTYDMSWVRQAPGKGLEWVATISSGGSYTYYLDSVKGRFTISRDSAKNSLYLQMNSLRAEDTAVYYCAPTTVVPFAYWGQGTLVTVSA VL: DIQMTQSPSSLSTSVGDRVTITCKASQNVRTVVAWYQQKPGKAPKTLIYLASSLQSGVPSRFSGSGSGTEFTLTISNVQPEDFADYFCLQHWSYPLTFGSGTKLEVK', 8.02),
  ('G3A_VK2+VH1 (antibody, IgG1, V domains shown, part only, IgG1 constant regions not given) VH: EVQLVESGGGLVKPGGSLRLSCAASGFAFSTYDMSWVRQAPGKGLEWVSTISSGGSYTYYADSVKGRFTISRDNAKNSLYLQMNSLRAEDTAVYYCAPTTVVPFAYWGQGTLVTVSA VL: DIQMTQSPSSLSTSVGDRVTITCKASQNVRTVVAWYQQKPGKAPKTLIYLASSLQSGVPSRFSGSGSGTEFTLTISNVQPEDFADYFCLQHWSYPLTFGSGTKLEVK', 8.24),
  ('G3A_VK3+VH2 (antibody, IgG1, V domains shown, part only, IgG1 constant regions not given) VH: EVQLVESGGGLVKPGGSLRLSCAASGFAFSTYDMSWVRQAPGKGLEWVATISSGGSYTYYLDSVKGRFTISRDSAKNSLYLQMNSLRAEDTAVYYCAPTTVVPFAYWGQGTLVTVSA VL: DIQMTQSPSSLSTSVGDRVTITCKASQNVRTVVAWYQQKPGKAPKTLIYLASNRHSGVPSRFSGSGSGTEFTLTISNLQPEDFATYYCLQHWSYPLTFGSGTKLEVK', 9.62);

Hello, the source for this data is patent US20240026037A1, in case you need it.
